# % Active Ester Remaining annotations
- assay procedure: Comparative active ester reactivity study with HOA nucleophile (benzhydroxamic acid)
- recorded conditions: Benzhydroxamic Acid 1 eq., 120 min, 22±2° C.
- Description: General Experimental Protocol for Comparative Active Ester Reactivity Study with HOPO or HOA Nucleophiles To a 4 mL scintillation vial containing Compound A-E (in respective experiments; 1 eq.) was added a stir bar followed by 150 μL of HPLC grade acetonitrile. In another 4 mL scintillation vial containing a respective nucleophile (1 eq.) was added 280 μL HPLC grade water. […] Timed aliquots at time (T)=15, 30, 60, 120 and 240 minutes were taken and analyzed by HPLC-MS using elution method 1 (Table 1).

molecule	quantity unit	% Active Ester Remaining
O=C(CCc1cccnc1)Oc1ccc([N+](=O)[O-])cc1 [Compound D, 4-Nitrophenyl-3-(pyridin-3-yl)propanoate]	%	57.07
O=C(CCc1cccnc1)Oc1c(F)c(F)cc(F)c1F	%	18.88
O=C(CCc1cccnc1)Oc1c(Cl)cccc1Cl	%	86.65
O=C(CCc1cccnc1)ON1C(=O)CCC1=O	%	0.49
O=C(CCc1cccnc1)Oc1c(F)cccc1F	%	42.81

====

- assay procedure: Temperature stability study in H2O
- Format: physicochemical
- recorded conditions: 50° C., 15 min
Threshold check on % Remaining: strictly below 80% is Yes; on or above 80% is No.

compound	assigned class
O=C(CCc1cccnc1)Oc1c(Cl)cccc1Cl [Compound A]	No
O=C(CCc1cccnc1)Oc1ccc([N+](=O)[O-])cc1 [Compound D, 4-Nitrophenyl-3-(pyridin-3-yl)propanoate]	No
O=C(CCc1cccnc1)Oc1c(F)cccc1F [Compound B]	No
O=C(CCc1cccnc1)ON1C(=O)CCC1=O [Compound E]	Yes

====

- assay procedure: Temperature stability study in H2O
- Type: physicochemical
- recorded conditions: 20° C., 30 min
- Procedure: 20° C.: To a 4 mL scintillation vial containing Compound A-E (in respective experiments; 0.8 mg) was added 4 mL of HPLC grade water to create a 0.2 mg/mL solution. 2 mL of this solution was added to a 2 mL HPLC vial and placed in the auto sampler of an HPLC-MS at 20° C. Timed aliquots at time (T)=15, 30, 60, 120, 240 and 480 minutes were taken and analyzed by HPLC-MS using elution method 1 (Table 4). […]
measurement kind: % Remaining (%)

molecule	result
O=C(CCc1cccnc1)Oc1c(F)c(F)cc(F)c1F	91.82
O=C(CCc1cccnc1)Oc1ccc([N+](=O)[O-])cc1 [Compound D, 4-Nitrophenyl-3-(pyridin-3-yl)propanoate]	96.41
O=C(CCc1cccnc1)ON1C(=O)CCC1=O	78.45
O=C(CCc1cccnc1)Oc1c(F)cccc1F	99.20
O=C(CCc1cccnc1)Oc1c(Cl)cccc1Cl	100

====

# % Remaining annotations
- assay procedure: pH stability study
- Type: physicochemical
- recorded conditions: pH 3 buffer, 20° C., 60 min
- Protocol: To a 4 mL scintillation vial containing Compound A-E (in respective experiments; 0.8 mg) was added 4 mL of either a pH 3, pH 5 pH 7 or pH 9 buffer to create a 0.2 mg/mL solution. 2 mL of this solution was added to a 2 mL HPLC vial and placed in the auto sampler of an HPLC-MS at 20° C. Timed aliquots at time (T)=15, 30, 60, 120, 240 and 480 minutes were taken and analyzed by HPLC-MS using elution method 1 (Table 3). […]
measurement kind: % Remaining

compound	result
O=C(CCc1cccnc1)ON1C(=O)CCC1=O [Compound E]	44.51%
O=C(CCc1cccnc1)Oc1ccc([N+](=O)[O-])cc1 [Compound D, 4-Nitrophenyl-3-(pyridin-3-yl)propanoate]	99.57%
O=C(CCc1cccnc1)Oc1c(F)cccc1F [Compound B]	99.19%
O=C(CCc1cccnc1)Oc1c(F)c(F)cc(F)c1F [Compound C]	89.61%
O=C(CCc1cccnc1)Oc1c(Cl)cccc1Cl [Compound A]	100%
